Listed next: entries and their corresponding Kd.
- experimentalTarget: T1, extracellular domain of human BCMA (human, UniProt Q02223 1-54)
- T1 construct: amine-linked to Octet AR2G tips; also called hsBCMA; BCMA (human)
- T1 sequence: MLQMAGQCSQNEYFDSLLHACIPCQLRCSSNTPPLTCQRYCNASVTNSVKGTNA
- experimentalDetails: Octet BLI; Fab 200 nM
Unit nM implied. Number only.

Below, each entry is followed by its recorded Kd result.
binder: AB200-R1H26-R2Vk19 (Fab, V domains shown) VH: QVQLVQSGAEVKKPGSSVKVSCKASGGSFSNYWMHWVRQAPGQGLEWMGATYRIHSDTFYNQKFKGRVTITADKSTSTAYMELSSLRSEDTAVYYCARGAIYHGYDVLDNWGQGTLVTVSS VL: DIQMTQSPSSLSASVGDRVTITCRASQSISSYLNWYQQKPGKAPKLLIYATSNLQSGVPSRFSGSGSGTDFTLTISSLQPEDFATYYCQQYRRLPWSFGQGTKLEIKR
experimentalReadout: Kd
obsValue: 1.62

binder: AB200-R1H26-R2Vk6 (Fab, V domains shown) VH: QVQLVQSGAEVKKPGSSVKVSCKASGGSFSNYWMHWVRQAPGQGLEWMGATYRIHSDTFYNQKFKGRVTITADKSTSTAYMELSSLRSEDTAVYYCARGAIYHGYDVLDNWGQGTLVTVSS VL: DIQMTQSPSSLSASVGDRVTITCRASQSISSYINWYQQKPGKAPKLLIYATSNLQSGVPSRFSGSGSGTDFTLTISSLQPEDFATYYCQQFRKLPWSFGQGTKLEIKR
experimentalReadout: Kd
obsValue: 2.08

Lookup: Give recorded Kd. AB200-R1H26-R2Vk42 (Fab, V domains shown) VH: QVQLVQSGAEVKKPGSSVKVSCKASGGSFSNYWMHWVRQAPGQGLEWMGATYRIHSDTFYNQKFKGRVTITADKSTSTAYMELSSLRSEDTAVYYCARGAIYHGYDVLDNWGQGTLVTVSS VL: DIQMTQSPSSLSASVGDRVTITCRASQSISSYINWYQQKPGKAPKLLIYATSNIQSGVPSRFSGSGSGTDFTLTISSLQPEDFATYYCQQYRKIPWSFGQGTKLEIKR
Found: 2.42
